Each recorded value in this set is attributed to ChEMBL document CHEMBL4376834.

Target: Ephrin type-B receptor 1 (Homo sapiens, UniProt P54762)
Sequence (P54762 whole entry): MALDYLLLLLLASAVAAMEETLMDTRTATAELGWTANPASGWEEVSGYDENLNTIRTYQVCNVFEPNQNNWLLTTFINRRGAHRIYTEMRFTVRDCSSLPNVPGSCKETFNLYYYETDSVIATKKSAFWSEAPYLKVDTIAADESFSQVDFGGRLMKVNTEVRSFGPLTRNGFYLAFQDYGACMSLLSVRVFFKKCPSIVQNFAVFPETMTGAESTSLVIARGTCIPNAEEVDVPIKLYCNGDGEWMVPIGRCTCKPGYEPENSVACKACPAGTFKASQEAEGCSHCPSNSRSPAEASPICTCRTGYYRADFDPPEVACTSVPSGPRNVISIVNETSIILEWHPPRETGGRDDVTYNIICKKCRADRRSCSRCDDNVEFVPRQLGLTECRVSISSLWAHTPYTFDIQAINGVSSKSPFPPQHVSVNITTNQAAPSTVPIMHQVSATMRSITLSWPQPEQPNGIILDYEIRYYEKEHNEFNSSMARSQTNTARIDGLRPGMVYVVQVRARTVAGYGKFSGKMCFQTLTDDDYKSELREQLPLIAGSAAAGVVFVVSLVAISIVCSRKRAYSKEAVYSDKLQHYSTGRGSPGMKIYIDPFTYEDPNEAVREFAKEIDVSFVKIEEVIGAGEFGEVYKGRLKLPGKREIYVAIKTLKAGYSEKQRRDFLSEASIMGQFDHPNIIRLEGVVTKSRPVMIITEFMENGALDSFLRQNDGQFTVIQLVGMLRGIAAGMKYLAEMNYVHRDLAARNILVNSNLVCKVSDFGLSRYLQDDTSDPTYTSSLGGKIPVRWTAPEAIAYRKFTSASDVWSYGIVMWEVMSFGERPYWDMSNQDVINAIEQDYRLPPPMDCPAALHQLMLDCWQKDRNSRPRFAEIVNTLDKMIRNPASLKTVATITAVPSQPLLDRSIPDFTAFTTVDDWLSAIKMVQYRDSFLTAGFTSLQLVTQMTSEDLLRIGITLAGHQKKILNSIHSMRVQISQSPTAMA
Test: Inhibition of recombinant human EphB1 (564 to end residues) using […] as substrate after 40 mins in presence of [gamma-33ATP] by radiometric scintillation counting analysis
reported_metric: IC50

{"columns": ["molecular_string", "reported_metric", "recorded_measurement"],
 "data": [
  ["CN(C)c1ccc(C(=O)Nc2cccc(NC(=O)COc3ccc4c(=O)ccoc4c3)c2)cc1", "IC50", "> 10 µM"]
]}

====

Molecular target: Serine/threonine-protein kinase DCLK2 (Homo sapiens)
Sequence (Q8N568 whole entry): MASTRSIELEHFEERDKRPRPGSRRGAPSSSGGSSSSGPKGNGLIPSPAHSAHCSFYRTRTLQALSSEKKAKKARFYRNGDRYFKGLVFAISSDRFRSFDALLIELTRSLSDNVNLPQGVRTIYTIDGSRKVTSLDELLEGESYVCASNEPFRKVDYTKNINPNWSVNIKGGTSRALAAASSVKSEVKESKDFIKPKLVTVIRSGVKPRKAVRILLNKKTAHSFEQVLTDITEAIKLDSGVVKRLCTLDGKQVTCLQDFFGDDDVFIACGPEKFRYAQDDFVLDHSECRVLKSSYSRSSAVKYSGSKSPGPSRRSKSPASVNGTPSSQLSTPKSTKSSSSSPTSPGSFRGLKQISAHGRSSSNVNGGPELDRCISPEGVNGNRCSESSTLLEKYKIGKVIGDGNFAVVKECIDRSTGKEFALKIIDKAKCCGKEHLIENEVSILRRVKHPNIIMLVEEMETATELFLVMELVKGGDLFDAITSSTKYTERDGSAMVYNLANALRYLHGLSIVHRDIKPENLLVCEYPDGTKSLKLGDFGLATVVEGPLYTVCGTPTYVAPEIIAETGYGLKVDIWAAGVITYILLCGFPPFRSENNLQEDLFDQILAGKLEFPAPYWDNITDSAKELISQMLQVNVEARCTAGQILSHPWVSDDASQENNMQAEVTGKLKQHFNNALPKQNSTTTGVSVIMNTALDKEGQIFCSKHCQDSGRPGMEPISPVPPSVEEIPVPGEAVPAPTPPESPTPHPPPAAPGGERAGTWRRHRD
Assay: Inhibition of recombinant human DCAMKL2 (376 to end residues) using KKLNRTLSFAEPG as substrate after 40 mins in presence of [gamma-33ATP] by radiometric scintillation counting analysis

{"columns": ["molecular_string", "study_system", "IC50"],
 "data": [
  ["CN(C)c1ccc(C(=O)Nc2cccc(NC(=O)COc3ccc4c(=O)ccoc4c3)c2)cc1", "Serine/threonine-protein kinase DCLK2 (Homo sapiens)", "> 10 µM"]
]}

====

Biological target: Receptor-type tyrosine-protein kinase FLT3 (Homo sapiens, UniProt P36888)
Sequence (P36888 whole entry): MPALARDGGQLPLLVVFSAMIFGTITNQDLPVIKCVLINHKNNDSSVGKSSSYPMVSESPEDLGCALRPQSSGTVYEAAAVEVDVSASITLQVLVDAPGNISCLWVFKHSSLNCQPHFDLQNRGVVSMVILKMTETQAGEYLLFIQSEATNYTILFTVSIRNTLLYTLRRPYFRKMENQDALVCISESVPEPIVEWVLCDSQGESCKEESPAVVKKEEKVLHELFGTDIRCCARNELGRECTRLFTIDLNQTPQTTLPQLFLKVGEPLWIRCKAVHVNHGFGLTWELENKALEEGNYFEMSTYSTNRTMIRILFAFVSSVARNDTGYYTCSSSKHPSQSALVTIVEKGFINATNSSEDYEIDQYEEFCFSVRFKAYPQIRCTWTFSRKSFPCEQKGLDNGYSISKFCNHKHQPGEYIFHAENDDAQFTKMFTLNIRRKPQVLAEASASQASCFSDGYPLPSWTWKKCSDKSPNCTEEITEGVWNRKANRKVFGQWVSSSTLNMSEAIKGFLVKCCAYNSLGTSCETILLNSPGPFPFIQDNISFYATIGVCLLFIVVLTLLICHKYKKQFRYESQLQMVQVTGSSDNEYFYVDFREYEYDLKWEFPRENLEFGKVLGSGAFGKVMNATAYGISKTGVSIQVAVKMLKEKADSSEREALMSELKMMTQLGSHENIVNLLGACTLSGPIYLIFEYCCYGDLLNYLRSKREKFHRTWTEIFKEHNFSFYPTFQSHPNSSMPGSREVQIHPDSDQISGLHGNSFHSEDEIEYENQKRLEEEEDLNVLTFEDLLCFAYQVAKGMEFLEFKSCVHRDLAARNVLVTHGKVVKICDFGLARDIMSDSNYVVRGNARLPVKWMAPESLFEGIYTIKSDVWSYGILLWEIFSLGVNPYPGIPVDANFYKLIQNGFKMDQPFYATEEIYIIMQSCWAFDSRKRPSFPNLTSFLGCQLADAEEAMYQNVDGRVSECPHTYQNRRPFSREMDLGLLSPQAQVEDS
Assay: Inhibition of recombinant human FLT3 (564 to end residues) using EAIYAAPFAKKK as substrate after 40 mins in presence of [gamma-33ATP] by radiometric scintillation counting analysis
pIC50: −log10 of the molar value.
reported_metric: pIC50

{"columns": ["molecular_string", "reported_metric", "recorded_measurement"],
 "data": [
  ["CN(C)c1ccc(C(=O)Nc2cccc(NC(=O)COc3ccc4c(=O)ccoc4c3)c2)cc1", "pIC50", "< 5.00"]
]}

====

Target: Protein-tyrosine kinase 6 (Homo sapiens)
Test: Inhibition of recombinant full length human BRK using poly(Glu, Tyr) 4:1 as substrate incubated for 40 mins in presence of [gamma-33ATP] by radiometric scintillation counting analysis

{"columns": ["molecular_string", "IC50"],
 "data": [
  ["CN(C)c1ccc(C(=O)Nc2cccc(NC(=O)COc3ccc4c(=O)ccoc4c3)c2)cc1", "> 10 µM"]
]}

====

Target: Serine/threonine-protein kinase 17B (Homo sapiens)
Sequence (O94768 whole entry): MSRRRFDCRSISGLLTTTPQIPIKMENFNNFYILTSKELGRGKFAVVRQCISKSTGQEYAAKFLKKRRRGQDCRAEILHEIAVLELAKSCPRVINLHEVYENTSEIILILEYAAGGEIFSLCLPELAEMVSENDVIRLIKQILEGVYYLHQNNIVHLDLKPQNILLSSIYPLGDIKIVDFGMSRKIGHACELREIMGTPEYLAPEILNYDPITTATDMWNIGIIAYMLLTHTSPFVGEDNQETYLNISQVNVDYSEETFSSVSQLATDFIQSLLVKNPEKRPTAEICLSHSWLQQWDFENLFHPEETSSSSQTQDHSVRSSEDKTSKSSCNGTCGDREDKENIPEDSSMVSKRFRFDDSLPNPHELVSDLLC
Assay: Inhibition of recombinant full length human DRAK2 using KKRPQRRYSNVF as substrate at 120 mins in presence of [gamma-33ATP] by radiometric scintillation counting analysis

{"columns": ["molecular_string", "IC50"],
 "data": [
  ["CN(C)c1ccc(C(=O)Nc2cccc(NC(=O)COc3ccc4c(=O)ccoc4c3)c2)cc1", "> 10 µM"]
]}

====

Target: Serine/threonine-protein kinase TBK1 (Homo sapiens)
Sequence (Q9UHD2 whole entry): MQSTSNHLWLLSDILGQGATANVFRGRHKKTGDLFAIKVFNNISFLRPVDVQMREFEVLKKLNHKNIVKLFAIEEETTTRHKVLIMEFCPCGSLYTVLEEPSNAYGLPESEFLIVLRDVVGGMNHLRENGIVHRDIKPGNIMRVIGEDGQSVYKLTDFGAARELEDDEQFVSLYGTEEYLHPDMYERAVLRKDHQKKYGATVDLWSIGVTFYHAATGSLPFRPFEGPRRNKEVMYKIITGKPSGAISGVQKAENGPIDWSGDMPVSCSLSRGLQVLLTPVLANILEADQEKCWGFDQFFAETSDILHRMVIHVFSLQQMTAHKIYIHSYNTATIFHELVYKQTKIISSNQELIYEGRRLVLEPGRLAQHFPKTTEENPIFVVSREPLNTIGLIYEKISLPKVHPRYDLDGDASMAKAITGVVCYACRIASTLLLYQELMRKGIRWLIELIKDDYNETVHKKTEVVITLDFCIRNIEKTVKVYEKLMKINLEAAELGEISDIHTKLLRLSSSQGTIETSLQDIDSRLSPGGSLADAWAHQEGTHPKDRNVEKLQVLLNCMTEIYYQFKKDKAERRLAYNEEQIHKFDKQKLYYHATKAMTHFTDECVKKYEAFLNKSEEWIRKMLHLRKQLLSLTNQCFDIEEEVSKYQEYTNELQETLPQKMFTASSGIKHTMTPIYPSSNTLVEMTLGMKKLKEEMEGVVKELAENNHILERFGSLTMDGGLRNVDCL
Assay: Inhibition of recombinant full length human TBK1 using KRRRALS(p)VAS as substrate incubated for 40 mins in presence of [gamma33P]ATP by radiometric scintillation counting analysis

{"columns": ["molecular_string", "study_system", "IC50"],
 "data": [
  ["CN(C)c1ccc(C(=O)Nc2cccc(NC(=O)COc3ccc4c(=O)ccoc4c3)c2)cc1", "Serine/threonine-protein kinase TBK1 (Homo sapiens)", "> 10 µM"]
]}

====

Target: Mitogen-activated protein kinase kinase kinase 20 (Homo sapiens, UniProt Q9NYL2)
Assay: Inhibition of recombinant full-length human ZAK using MBP as substrate incubated for 40 mins in presence of [gamma33P]ATP by radiometric scintillation counting analysis

{"columns": ["molecular_string", "IC50"],
 "data": [
  ["CN(C)c1ccc(C(=O)Nc2cccc(NC(=O)COc3ccc4c(=O)ccoc4c3)c2)cc1", "> 10 µM"]
]}

====

Assay: n-Octanol-water partition coefficient, logD of compound at 1 mg measured after 48 hrs under shaking condition by LC-MS analysis
Type: physicochemical

{"columns": ["molecular_string", "logD at 48 h"],
 "data": [
  ["CN(C)c1ccc(C(=O)Nc2cccc(NC(=O)COc3ccc4c(=O)ccoc4c3)c2)cc1", 2.65]
]}

====

Molecular target: Dual specificity protein kinase CLK1 (Homo sapiens)
Sequence (P49759 whole entry): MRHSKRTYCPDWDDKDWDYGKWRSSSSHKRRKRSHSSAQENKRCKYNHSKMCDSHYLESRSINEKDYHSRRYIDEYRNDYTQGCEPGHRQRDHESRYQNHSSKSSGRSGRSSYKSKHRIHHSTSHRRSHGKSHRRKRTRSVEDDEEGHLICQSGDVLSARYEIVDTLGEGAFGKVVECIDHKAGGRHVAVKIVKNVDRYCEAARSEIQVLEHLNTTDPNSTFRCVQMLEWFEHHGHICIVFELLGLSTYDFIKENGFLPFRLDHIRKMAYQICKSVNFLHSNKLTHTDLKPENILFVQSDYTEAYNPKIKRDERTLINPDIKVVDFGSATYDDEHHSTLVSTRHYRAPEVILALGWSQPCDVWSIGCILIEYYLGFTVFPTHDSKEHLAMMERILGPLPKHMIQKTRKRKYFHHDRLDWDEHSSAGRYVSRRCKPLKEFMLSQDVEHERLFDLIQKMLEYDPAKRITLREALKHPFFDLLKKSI
Experiment: Inhibition of recombinant human CLK1 (130 to end residues) using ERMRPRKRQGSVR as substrate incubated 40 mins in presence of [gamma-33ATP] by radiometric scintillation counting analysis
pIC50: −log10 of the molar value.

{"columns": ["molecular_string", "pIC50"],
 "data": [
  ["CN(C)c1ccc(C(=O)Nc2cccc(NC(=O)COc3ccc4c(=O)ccoc4c3)c2)cc1", "< 5.00"]
]}

====

Target: Serine/threonine-protein kinase SIK1 (Homo sapiens, UniProt P57059)
Sequence (P57059 whole entry, the tested form may be a part): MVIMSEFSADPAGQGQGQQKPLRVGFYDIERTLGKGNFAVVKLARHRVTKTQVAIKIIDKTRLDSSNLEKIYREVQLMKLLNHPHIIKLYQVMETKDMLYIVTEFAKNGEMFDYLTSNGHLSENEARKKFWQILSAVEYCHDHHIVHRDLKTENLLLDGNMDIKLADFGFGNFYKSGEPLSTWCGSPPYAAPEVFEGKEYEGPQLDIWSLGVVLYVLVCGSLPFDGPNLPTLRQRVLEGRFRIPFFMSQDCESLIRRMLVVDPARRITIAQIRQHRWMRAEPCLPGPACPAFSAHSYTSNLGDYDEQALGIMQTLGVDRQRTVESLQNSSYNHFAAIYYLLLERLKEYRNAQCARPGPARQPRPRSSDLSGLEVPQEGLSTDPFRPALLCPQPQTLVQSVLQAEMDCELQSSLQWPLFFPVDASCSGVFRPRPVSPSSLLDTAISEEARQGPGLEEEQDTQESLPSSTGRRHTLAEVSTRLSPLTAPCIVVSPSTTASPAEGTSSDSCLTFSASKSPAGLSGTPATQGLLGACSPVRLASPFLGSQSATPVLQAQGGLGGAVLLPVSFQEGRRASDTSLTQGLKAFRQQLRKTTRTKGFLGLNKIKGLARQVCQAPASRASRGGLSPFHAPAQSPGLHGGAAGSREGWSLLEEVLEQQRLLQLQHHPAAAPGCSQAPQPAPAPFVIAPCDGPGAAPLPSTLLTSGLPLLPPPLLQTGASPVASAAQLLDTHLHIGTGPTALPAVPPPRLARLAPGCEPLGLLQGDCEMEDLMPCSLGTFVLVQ
Assay: Inhibition of recombinant human SIK (1 to 281 residues) using AMARAASAAALARas substrate incubated for 40 mins in presence of [gamma33P]ATP by radiometric scintillation counting analysis

{"columns": ["molecular_string", "study_system", "IC50"],
 "data": [
  ["CN(C)c1ccc(C(=O)Nc2cccc(NC(=O)COc3ccc4c(=O)ccoc4c3)c2)cc1", "Serine/threonine-protein kinase SIK1 (Homo sapiens, UniProt P57059)", "> 10 µM"]
]}

====

Biological target: Serine/threonine-protein kinase MRCK alpha (Homo sapiens, UniProt Q5VT25)
Sequence (Q5VT25 whole entry, the tested form may be a part): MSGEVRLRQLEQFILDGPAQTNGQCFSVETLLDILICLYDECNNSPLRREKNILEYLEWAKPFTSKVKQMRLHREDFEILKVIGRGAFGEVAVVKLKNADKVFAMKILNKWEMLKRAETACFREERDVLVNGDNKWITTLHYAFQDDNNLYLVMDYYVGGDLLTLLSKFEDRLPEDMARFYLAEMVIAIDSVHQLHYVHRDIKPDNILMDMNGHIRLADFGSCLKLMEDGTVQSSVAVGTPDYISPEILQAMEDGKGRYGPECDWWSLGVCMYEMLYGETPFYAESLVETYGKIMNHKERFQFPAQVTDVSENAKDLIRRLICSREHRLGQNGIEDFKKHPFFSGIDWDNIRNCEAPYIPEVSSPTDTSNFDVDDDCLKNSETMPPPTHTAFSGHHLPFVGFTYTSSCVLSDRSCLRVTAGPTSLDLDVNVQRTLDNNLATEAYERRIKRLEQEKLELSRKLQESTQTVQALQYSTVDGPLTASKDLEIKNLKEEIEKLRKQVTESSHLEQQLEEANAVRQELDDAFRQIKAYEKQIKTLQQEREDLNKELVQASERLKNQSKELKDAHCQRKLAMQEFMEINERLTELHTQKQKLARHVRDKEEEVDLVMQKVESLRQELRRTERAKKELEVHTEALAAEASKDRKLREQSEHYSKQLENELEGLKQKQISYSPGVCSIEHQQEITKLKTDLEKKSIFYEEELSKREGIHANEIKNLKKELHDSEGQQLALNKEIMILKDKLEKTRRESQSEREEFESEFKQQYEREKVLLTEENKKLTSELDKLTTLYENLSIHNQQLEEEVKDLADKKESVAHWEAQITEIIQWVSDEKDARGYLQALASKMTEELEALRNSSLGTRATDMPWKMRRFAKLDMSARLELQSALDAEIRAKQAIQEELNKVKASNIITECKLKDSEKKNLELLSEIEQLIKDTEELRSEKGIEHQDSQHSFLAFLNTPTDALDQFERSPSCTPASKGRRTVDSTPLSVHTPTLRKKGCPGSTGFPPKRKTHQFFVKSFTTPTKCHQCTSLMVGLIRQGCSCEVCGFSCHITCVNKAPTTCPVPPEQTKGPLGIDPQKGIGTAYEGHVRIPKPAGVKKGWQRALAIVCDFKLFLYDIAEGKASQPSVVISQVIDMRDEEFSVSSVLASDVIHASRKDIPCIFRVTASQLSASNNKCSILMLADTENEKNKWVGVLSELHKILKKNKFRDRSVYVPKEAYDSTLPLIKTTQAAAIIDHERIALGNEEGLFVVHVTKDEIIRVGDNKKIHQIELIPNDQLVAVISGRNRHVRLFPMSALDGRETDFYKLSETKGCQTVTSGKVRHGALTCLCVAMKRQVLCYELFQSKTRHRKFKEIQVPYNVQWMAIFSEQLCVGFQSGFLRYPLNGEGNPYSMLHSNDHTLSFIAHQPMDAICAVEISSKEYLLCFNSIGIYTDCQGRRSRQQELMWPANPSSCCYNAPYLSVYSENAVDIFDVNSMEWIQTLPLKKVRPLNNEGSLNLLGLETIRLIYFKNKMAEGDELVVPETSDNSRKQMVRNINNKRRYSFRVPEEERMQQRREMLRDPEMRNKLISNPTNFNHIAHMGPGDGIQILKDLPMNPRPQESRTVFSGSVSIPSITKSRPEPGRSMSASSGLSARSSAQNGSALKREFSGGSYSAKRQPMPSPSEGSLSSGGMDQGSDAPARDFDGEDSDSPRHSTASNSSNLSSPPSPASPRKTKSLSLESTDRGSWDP
Test: Inhibition of recombinant human MRCKalpha (1 to 473 residues) using KKRNRTLTV as substrate incubated for 40 mins in presence of [gamma-33ATP by radiometric scintillation counting analysis

{"columns": ["molecular_string", "IC50"],
 "data": [
  ["CN(C)c1ccc(C(=O)Nc2cccc(NC(=O)COc3ccc4c(=O)ccoc4c3)c2)cc1", "> 10 µM"]
]}
